System: PC-3 prostate
Experiment: NCI tumour cell line growth inhibition, 48 h
Assay Readout: TGI

# TGI measured on PC-3 prostate for item CC1=C(C(=O)OC(C)C)C(c2ccccc2[N+](=O)[O-])C(C(=O)OC(CO[N+](=O)[O-])CO[N+](=O)[O-])=C(C)N1 (stereo not given) = 12.2 µM

# TGI measured on PC-3 prostate for item COC/C=C\[C@@]1(O)CCCC[C@@H]1CC(OC)OC = > 100 µM

# TGI measured on PC-3 prostate for item CC(C)(C)OC(=O)N1CCC23CCCC2C(=O)CC=C13 (stereo not given) = > 100 µM

# TGI measured on PC-3 prostate for item Cc1[nH]c2ccccc2c1C=Nc1ccc(Oc2ccccc2)cc1 = 26.9 µM

# TGI measured on PC-3 prostate for item Cn1cnc([N+](=O)[O-])c1Sc1ncnc2c1ncn2C1OC(CO)C(O)C1O (stereo not given) = > 100 µM

# TGI measured on PC-3 prostate for item CCNCCNc1cc(-c2ccc(F)cc2)c(C#N)c2nc3ccccc3n12 = 19.5 µM

# TGI measured on PC-3 prostate for item COc1ccc(/C=C2\COc3ccc(-c4ccccc4)cc3C2=O)cc1O = > 100 µM

# TGI measured on PC-3 prostate for item NC(CSC(c1ccccc1)(c1ccccc1)c1ccc2ccccc2c1)C(=O)O (stereo not given) = > 82.7 µM

List TGI for every entry below, keeping the order given.
1. CCSC1=CC(=O)c2ccccc2C1=O
2. O=C(NNS(=O)(=O)c1cc(C(F)(F)F)cc(C(F)(F)F)c1)c1cnn(-c2ccc(Cl)cc2)c1C(F)(F)F
3. CC/C=C\CCC/C=C1/C(=O)C=C[C@@H]1C/C=C\CCCC(=O)O

["18.5 µM", "32.8 µM", "9.82 µM"]

List TGI for every entry below, keeping the order given.
1. COc1ccc(NC(=O)c2cc(OC)c(OC)c(OC)c2)cc1O
2. C=C(C)C1/C=C(/C(C)C)CC[C@]2(C)O[C@@H]2CC[C@H](C)CC1=O (stereo not given in full)
3. O=C(NC(Nc1ccc(F)c(Cl)c1)(C(F)(F)F)C(F)(F)F)C(C(F)(F)F)C(F)(F)F
4. CC1(C)OCN(c2ccc(Cl)cc2)Cn2c1nc1ccccc12
5. Clc1nc2c(-c3cccs3)ncnc2n1Cc1ccccc1

1: > 100 µM; 2: > 100 µM; 3: > 100 µM; 4: > 100 µM; 5: > 76.4 µM

List TGI for every entry below, keeping the order given.
1. C=C(C)[C@H]1CC/C(C)=C/CCC(C)C(=O)CC/C(CO)=C\[C@@H]1O (stereo not given in full)
2. CCOC(=O)c1nc2cc(C(F)(F)F)ccc2nc1Nc1ccc(Cl)c(Cl)c1
3. CC(=O)OC1CCC2(C)C(=CC(C3C=C4CC(OC(C)=O)CCC4(C)C4=C3C3CC5OC6(CCC(C)CO6)C(C)C5C3(C)CC4)C3=C2CCC2(C)C3CC3OC4(CCC(C)CO4)C(C)C32)C1 (stereo not given)
4. NC(CCCCNc1ccn(C2OC(CO)C(O)C2O)c(=O)n1)C(=O)O (stereo not given)

["> 100 µM", "> 100 µM", "25.6 µM", "> 100 µM"]

====

System: HCC-2998 colon
Assay: NCI tumour cell line growth inhibition, 48 h
Assay Readout: TGI (µM)
Numbers only, in µM.

Guide cases for TGI, answers given:
The molecule identified as O=c1[nH]c(=S)[nH]c(O)c1/C=C1\C=CC=N1 registered its TGI at 25

The molecule identified as Oc1ccccc1-n1c(-c2ccccc2)ccc1-c1ccccc1 registered its TGI at 29.2

The molecule identified as Cn1c(=O)n(CC(Br)CBr)c(=O)n(CC(Br)CBr)c1=O (stereo unspecified) registered its TGI at 81.1

The molecule identified as CC(C)(C)OC(=O)NC(Cc1ccc([N+](=O)[O-])cc1)C(=O)NC(CCCCNC(=O)OCc1ccccc1)C(=O)ON1C(=O)CCC1=O (stereo unspecified) registered its TGI at 79.4

Continue with the next molecule.
The molecule identified as O=c1c([Se]c2coc3ccccc3c2=O)coc2ccccc12 registered its TGI at 33.2

====

System: SN12C renal
Test: NCI tumour cell line growth inhibition, 48 h
Assay Readout: TGI

The molecule identified as Cn1c(=O)c2[nH]c(COc3ccc(C(C)(C)C)cc3)nc2n(C)c1=O registered its TGI at > 100 µM

The molecule identified as COC1=C(OC)CCC(/C(C#N)=C/c2ccc(OC)c(OC)c2)=C1 registered its TGI at > 100 µM

The molecule identified as Cc1nc(-c2nc([N+](=O)[O-])c([N+](=O)[O-])[nH]2)cs1 registered its TGI at > 100 µM

The molecule identified as Oc1ccc2ccccc2c1N=Nc1ccccc1 registered its TGI at > 100 µM

The molecule identified as O=C(/C=C/c1cccc(Cl)c1)c1ccc(Cl)cc1Cl registered its TGI at 32 µM

Continue with the next molecule.
The molecule identified as CCSC1=CC(=O)c2ccccc2C1=O registered its TGI at 28.6 µM

====

Tested on: MOLT-4 leukemia
Assay: NCI tumour cell line growth inhibition, 48 h
Please provide measured GI50 for the entries that follow.

Guide cases for GI50, answers given:
# GI50 measured on MOLT-4 leukemia for item Oc1c(CN2CCCC2)cc(COCc2ccccc2)c2cccnc12 = 2.96 µM

# GI50 measured on MOLT-4 leukemia for item O=c1[nH]c(-c2ccc(C(F)(F)F)cc2)nc2c1CSCC2 = > 100 µM

List GI50 for every entry below, keeping the order given.
1. COc1ccc([C@H]2O[C@@H](CO)C[C@]2(O)c2ccc(OC)cc2)cc1
2. COc1ccc(NC(=O)c2cc(OC)c(OC)c(OC)c2)cc1O
3. CN(C)c1ccc(/C=C/c2ccnc3ccccc23)cc1
4. COc1ccc(/C=C(\C#N)c2cc3ccccc3n2C)cc1

["> 100 µM", "3.42 µM", "3.59 µM", "0.448 µM"]

====

System: SN12C renal
Experiment: NCI tumour cell line growth inhibition, 48 h
Assay Readout: TGI

The compound identified as COc1ccc(C)cc1NC(=S)N/N=C/c1ccc(SC)cc1 registered its TGI at > 100 µM

The compound identified as CC(=O)N1CC(F)(F)c2c(Sc3ncc(N4CCC5(CC4)COC[C@H]5N)nc3N)cccc21 registered its TGI at > 100 µM

The compound identified as Clc1nc2c(-c3cccs3)ncnc2n1Cc1ccccc1 registered its TGI at > 100 µM

The compound identified as O=[N+]([O-])c1ccc(Cl)c(C2SCc3nc4ccccc4n32)c1 (stereo not drawn) registered its TGI at > 100 µM

The compound identified as COc1cccc(C2C(C(=O)Nc3cc(=O)n(C)c(=O)n3C)=C(C)NC(C)=C2C(=O)Nc2cc(=O)n(C)c(=O)n2C)c1O registered its TGI at > 100 µM

The compound identified as COc1ccccc1-n1c(SCc2cc(OC)c(OC)c(OC)c2)nc2ccc(Cl)cc2c1=O registered its TGI at > 100 µM

The compound identified as C[C@@H]1CC[C@@]2(OC1)O[C@H]1C[C@H]3[C@@H]4CC=C5C[C@@H](O[C@@H]6O[C@H](CO)[C@@H](O[C@@H]7O[C@@H](CO)[C@H](O)[C@H]7O)[C@H](O)[C@H]6O[C@@H]6O[C@@H](C)[C@H](O)[C@@H](O)[C@H]6O)CC[C@]5(C)[C@H]4CC[C@]3(C)[C@H]1[C@@H]2C registered its TGI at 1.65 µM

The compound identified as NNC(=O)c1n[nH]nc1SSc1n[nH]nc1C(=O)NN registered its TGI at > 100 µM

The compound identified as CC1=C2C(c3ccccc3)(c3ccccc3)C3C=CC2(C=N3)N(C(=O)NC2CCCCC2)C1=O (stereo not drawn) registered its TGI at 31.7 µM

The compound identified as CC(=O)/C(C)=N/N/C(N)=N\S(=O)(=O)c1cc(C(=O)Nc2ccccc2)c(Cl)cc1SCc1ccccc1 registered its TGI at > 100 µM

List TGI for every entry below, keeping the order given.
1. C=C(Cl)C(Cl)(CBr)CCC(Cl)C(C)(C)Cl (stereo not drawn)
2. COc1ccc(O)c2c1C(=O)CCCC2=O
3. O=C(NNS(=O)(=O)c1cc(C(F)(F)F)cc(C(F)(F)F)c1)c1cnn(-c2ccc(Cl)cc2)c1C(F)(F)F
4. COc1ccccc1/C=C\c1cc(OC)c(OC)c(OC)c1
5. C[N+]1(C)CN(c2ccccc2)C2(CCN(CCCC(=O)c3cccs3)CC2)C1=O

22.5 µM
> 100 µM
34.8 µM
> 100 µM
> 100 µM

List TGI for every entry below, keeping the order given.
1. CC(=O)Oc1cccc2c1C(=O)c1c(OC(C)=O)cc(C)cc1C2=O
2. COCN1C(=O)[C@@H]2CCCN2C(=O)c2cc([N+](=O)[O-])ccc21
3. C#CCOC(=O)c1ccccc1OC(C)=O

["> 100 µM", "> 100 µM", "> 100 µM"]
